molecular target: human σ2/TMEM97 receptor (Homo sapiens); assay: Binding assay to human σ2/TMEM97 receptor; details: transfected HEK-293 membranes, 10 nM [3H]-DTG, 25° C. 120 minutes; + may also stand for 1-50% inhibition at 1 or 10 μM; read-out: Binding σ-2 Ki
Sequence (Q5BJF2 whole entry): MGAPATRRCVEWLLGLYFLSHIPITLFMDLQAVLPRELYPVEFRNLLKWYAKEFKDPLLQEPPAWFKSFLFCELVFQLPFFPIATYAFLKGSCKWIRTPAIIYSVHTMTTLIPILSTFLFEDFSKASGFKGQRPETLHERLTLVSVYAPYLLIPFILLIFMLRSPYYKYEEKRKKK
pKi: −log10 of the molar value.
The following compounds are listed with their measured pKi values.

{"SMILES": "N#Cc1ccc(CN2CCC(NS(=O)(=O)c3ccc(N4CCOCC4)nc3)CC2)cc1", "OBSERVED RESULT": "< 6.00"}

// moving on: another record for pKi
input: Please report the recorded pKi for O=C1OCCN1c1ccc(S(=O)(=O)N2CCC3(CCN(Cc4ccccc4)CC3)CC2)cn1 .
output: > 7.00
